Recorded z-score, one value per entry.
assay_comment: E. coli growth modulation, two-sided OD650, primary screen, E. coli filamentation project, strain DRC41, 24 h (AID 1093);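 also: MC1000 strain lacking acrAB efflux and sulA so SOS filamentation is blocked; test concentration not given here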
run_conditions: OD650, 24 h, higher = more signal, called active from +8 up or from −8 down
parameter_measured: z-score

- compound: "OCCCC1=CC(c2ccc(CN3CCCC3)cc2)N(Cc2sc3ccccc3c2Cl)CC1 (stereo unspecified)"
  reported_measurement: -0.271
- compound: "O=C1OCC=C[C@H]2OC34C=CCN(Cc5ccccc5)C(=O)[C@H]3N(CCCCCCO)C(=O)[C@@H]4[C@@H]12 (stereo partly specified)"
  reported_measurement: 2.11
- compound: "O[C@@H](Cc1ccccc1)[C@@H](/C=C/C1CC1)N(CC#Cc1ccccc1)Cc1cccc(Cl)c1"
  reported_measurement: 1.37
- compound: "CCOC(=O)c1ccc(NC(=O)O[C@H]2[C@H](OC(=O)Nc3ccc4c(c3)OCO4)[C@H](OC(=O)Nc3ccc4c(c3)OCO4)[C@@H](OC)O[C@@H]2CO)cc1"
  reported_measurement: 0.62
- compound: "C=CCOC(=O)[C@H]1[C@@H]2C(=O)O[C@@H](c3ccccc3)[C@@H](c3ccccc3)N2[C@@H](c2ccc(OCCOC(=O)[C@@H]3C[C@@H]4C(=O)N[C@@H](CCCCNC(C)=O)C(=O)N4[C@@H]3c3ccc(O)cc3)cc2)[C@]12C(=O)Nc1ccc(I)cc12"
  reported_measurement: -0.289
- compound: "CC(C)C(CO)N1C(=O)[C@@H]2C3C(=O)OCCC/C=C\\[C@H]3OC23C=CCN(C(C)(C)C)C(=O)[C@@H]13 (stereo partly specified)"
  reported_measurement: -0.787

----------
Documented composite z-score across a set of molecules
Tested on: Noggin (protein binding on small-molecule microarray)
assay_comment: Noggin binders on small-molecule microarray, primary screen, biochemical, 635/667 nm fluorescence (AID 1095);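 also: score merges 667 nm feature fluorescence with signal to noise over triplicate slides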
run_conditions: 635 nm fluorescence, higher = more signal
parameter_measured: composite z-score

- molecule: "CCC(CC)C(O)C1C=CC2C(=O)N(c3ccccc3)C(=O)C2N1Nc1ccc(C(C)C)cc1 (stereo not given)"
  reported_measurement: 0.152
- molecule: "CC(C)(C)OC(=O)CC[C@]1(C(=O)NCC(O)CO)N=C(c2ccc(OCCCO)cc2)O[C@H]1c1ccccc1 (stereo not given in full)"
  reported_measurement: -0.837
- molecule: "CC[C@H]1C2=C3C(CC[C@H]4C(OCc5ccc(F)cc5C(F)(F)F)OC[C@](C)([C@@H]34)N(C(=O)OC(C)(C)C)C2)C(COC)C1COC (stereo not given in full)"
  reported_measurement: -0.207
- molecule: "C[N+](C)(C)CCCCCCNC(=O)[C@H]1C[C@H]2C(=O)N[C@@H](Cc3ccccc3)C(=O)N2[C@H]1c1ccc(O)cc1"
  reported_measurement: 1.18
- molecule: "O=C1O[C@H](c2ccccc2)[C@H](c2ccccc2)N2[C@H]1[C@@H](C(=O)NC[C@H](O)c1ccccc1)[C@]1(C(=O)Nc3ccc(C#CCCO)cc31)[C@H]2c1ccc(OCCO)cc1"
  reported_measurement: 0.558

----------
assay_comment: inhibitors of hydroxyurea-induced Chk1 phosphorylation, primary screen, imaging, HeLa, phospho-Chk1 antibody, percent positive cells (AID 1186)
run_conditions: hydroxyurea-induced phospho-Chk1 immunofluorescence imaging, higher = more signal
z-score: recorded values

- compound: "CO[C@H]1O[C@H](CO)[C@@H](OC(=O)Nc2ccc3c(c2)OCO3)[C@H](OC(=O)c2cc3ccccc3[nH]2)[C@H]1OC(=O)c1cc2ccccc2[nH]1"
  z-score: -0.308
- compound: "CC(C)(C)N1CC=CC23O[C@@H]4C=CCOC(=O)[C@@H]4[C@H]2C(=O)N(CCCCCCO)[C@@H]3C1=O (stereo not given in full)"
  z-score: -0.156
- compound: "CC(C)[Si](C#CCCCC#N)(O[C@H](c1ccccc1)c1cn([C@H](CO)Cc2ccccc2)nn1)C(C)C"
  z-score: -0.43
- compound: "COC(=O)[C@@]1(Cc2ccccc2)[C@H]2c3cc(C(=O)N(C)C)n(Cc4c(CO)[nH]cc(C)c4=O)c3C[C@H]2CN1C(=O)c1ccccc1"
  z-score: -0.0454
- compound: "COCCOC(=O)N1C(=O)[C@@]2(c3cc(C#CC4=CCCCC4)ccc31)[C@H](C(N)=O)[C@H]1C(=O)O[C@H](c3ccccc3)[C@H](c3ccccc3)N1[C@@H]2c1ccccc1OCCO"
  z-score: -0.176
- compound: "COC(=O)CCCCCCC(=O)Nc1ccc(NC(=O)CCCC[P+](c2ccccc2)(c2ccccc2)c2ccccc2)cc1"
  z-score: -0.917
- compound: "COc1ccc([Si](C)(C)[C@@H]2[C@@H](CC(=O)N(CCO)Cc3ccccc3)O[C@]3(C(=O)N(c4ccccc4)c4ccccc43)[C@H]2C)cc1"
  z-score: -1.11
- compound: "[N-]=[N+]=Nc1ccccc1C[C@]1(C(N)=O)N=C(c2ccc(OCCCO)cc2)O[C@H]1c1ccccc1N=[N+]=[N-]"
  z-score: -0.433
- compound: "CC1CC/C=C\\[C@H]2OC34C=CCN(c5ccc(Cl)cc5)C(=O)[C@H]3N(CCCCCO)C(=O)[C@]4(C)C2C(=O)O1 (stereo not given in full)"
  z-score: 1
- compound: "CC(C)N1C(=O)C[C@@](C(=O)NCCCN(C)C)(c2ccc([N+](=O)[O-])cc2)[C@H]1c1ccc(CO)cc1"
  z-score: 0.414

----------
System: Sam68 (KHDRBS1)
assay_comment: Sam68 small-molecule binders, primary screen, biochemical, small-molecule microarray, 635 nm fluorescence (AID 1125);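 also: score merges 667 nm channel intensity with signal to noise over triplicate slides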
run_conditions: small-molecule microarray binding, higher = more signal
compounds and their reported composite z-score

- compound: "COC(=O)[C@@]1(Cc2ccc(OC)cc2)[C@H]2c3cc(C(=O)N4CCCC4)n(Cc4cccc5ccccc45)c3C[C@H]2CN1C(=O)c1ccccc1"
  composite z-score: 0.462
- compound: "CCCNC(=O)[C@@]1(c2ccc([N+](=O)[O-])cc2)CC(=O)N(C2CCCCC2)[C@@H]1c1ccc(CO)cc1"
  composite z-score: 1.25
- compound: "COCCOC(=O)N1C(=O)[C@@]2(c3ccccc31)[C@H](C(=O)N1CCN(c3ncccn3)CC1)[C@H]1C(=O)O[C@H](c3ccccc3)[C@H](c3ccccc3)N1[C@@H]2c1ccc(O)cc1"
  composite z-score: 1.02
- compound: "CN1C(=O)C2C=CC(C(O)c3cccc(O)c3)N(Nc3ccccc3)C2C1=O (centres undefined)"
  composite z-score: -0.172

----------
In this section we review reported z-score values for a set of compounds.
assay_comment: HepG2 liver cancer cell viability effects, profiling panel, resazurin fluorescence, 24 h, PK04 Diversity Set (AID 1172); also: test concentration not given here
run_conditions: higher = more signal

- compound: "COc1ccccc1CN1C(=O)c2ccccc2[C@@]2(Cc3ccccc3N(CC(F)(F)F)C2=O)[C@@H]1c1ccc(CO)cc1"
  z-score: -0.108
- compound: "CCOc1cc(C(O)C2C=CC3C(=O)N(c4ccccc4)C(=O)C3N2Nc2ccc(C#N)cc2)ccc1O (stereo not given)"
  z-score: -1.79
- compound: "COCC1=C2[C@@H](CCc3ccccc3)OB(O)C[C@@H]2[C@@H]2C(=O)C=CC(=O)[C@@H]2C1"
  z-score: -1.15
- compound: "COc1ccc([Si](C)(C)[C@@H]2[C@@H](CC(=O)N(CCO)Cc3ccccc3)O[C@]3(C(=O)N(Cc4cccc(N5C(=O)c6cccc7cccc5c67)c4)c4ccccc43)[C@H]2C)cc1"
  z-score: -0.47
- compound: "COC(=O)CCCCCCC(=O)Nc1ccc(NC(=O)CCCC[P+](c2ccccc2)(c2ccccc2)c2ccccc2)cc1"
  z-score: 1.45

----------
assay_comment: E. coli acrAB mutant growth effects, primary screen, E. coli filamentation inducers, strain DRC39, OD650, 48 h (AID 1179);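 also: screen aims at cell division blockers that make cells filament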
run_conditions: E. coli DRC39 delta-acrAB growth, higher = more signal, called active from +8 up or from −8 down
Give yes (1) when the value for z-score is at least -0.03. Give no (0) when it is less.

- molecule: "CCCCCCc1nc(C2CC2)cc2c1[Si](C(C)C)(C(C)C)OC2"
  group_label: "no (0)"
- molecule: "CC1CC/C=C\\[C@H]2OC34C=CCN(C(C)C)C(=O)[C@H]3N(CCCCCCO)C(=O)[C@@H]4C2C(=O)O1 (stereo partly drawn)"
  group_label: "yes (1)"
- molecule: "COCCOC(=O)N1C(=O)[C@@]2(c3cc(C#Cc4ccc(OC)cc4)ccc31)[C@H](C(=O)Nc1nc3ccccc3s1)[C@H]1C(=O)O[C@H](c3ccccc3)[C@H](c3ccccc3)N1[C@@H]2c1ccc(OCCO)cc1"
  group_label: "no (0)"
- molecule: "CCCC[C@@H]1C[C@H]1[C@@H](NC(=O)c1ccccc1)c1ccc(C(F)(F)F)cc1"
  group_label: "yes (1)"
- molecule: "CCCCC=C[C@@H](NC(=O)c1ccc(-c2ccccc2)cc1)c1ccccc1"
  group_label: "yes (1)"
- molecule: "COC(=O)[C@@]1(Cc2ccc(OC)cc2)[C@@H]2C(=CC(=O)[C@H]2CC(=O)C(=O)N(C)C)CN1C(=O)c1ccccc1"
  group_label: "no (0)"
- molecule: "C=C(COC)/C(=C/C[C@H](OC(C)=O)c1ccc(OCCO)cc1)c1cc(C(=O)OC)ccc1OC"
  group_label: "yes (1)"
- molecule: "CC=CC(O)C1C=CC2C(=O)N(c3ccccc3)C(=O)C2N1Nc1ccccc1F (stereo not drawn)"
  group_label: "no (0)"
- molecule: "COc1ccc([Si](C)(C)[C@H]2[C@H](CCn3cc([C@H](O)c4ccccc4)nn3)O[C@@]3(C(=O)N(Cc4ccc(N5C(=O)c6cccc7cccc5c67)cc4)c4ccccc43)[C@@H]2C)cc1"
  group_label: "yes (1)"
- molecule: "CCOC(=O)[C@H]1[C@@H]2C(=O)N3CCC[C@H]3[C@H](O[Si](C(C)C)(C(C)C)C(C)C)[C@H]2C=C2CCN(S(=O)(=O)c3ccc(C)cc3)C[C@H]21"
  group_label: "no (0)"
- molecule: "CCOC(=O)c1ccc(NC(=O)O[C@H]2[C@H](OC(=O)Nc3ccc4c(c3)OCO4)[C@@H](OC(=O)Nc3ccc4c(c3)OCO4)[C@@H](OC)O[C@@H]2CO)cc1"
  group_label: "no (0)"
- molecule: "O=c1n(-c2ccccc2)c(=O)n2n1CC(COc1ccccc1)=C([C@H](O)CCc1ccccc1)[C@@H]2CO"
  group_label: "yes (1)"
- molecule: "CO[C@]12C=C(Br)[C@@H](C[C@@H]1c1cccc(C)c1)[C@@]1(CO1)C2=O"
  group_label: "yes (1)"
- molecule: "C=CCC(OC(C)=O)[C@@H]1[C@@H](N(Cc2cc3ccccc3o2)C(=O)c2ccc(-c3ccccc3)cc2)c2cc(OCCCO)ccc2N1C(=O)c1ccc2ccccc2c1 (stereo partly drawn)"
  group_label: "no (0)"
- molecule: "Cc1ccc(S[C@]2(C(=O)NCC(F)(F)F)CC(=O)N(C3CCCCC3)[C@@H]2c2ccc(CO)cc2I)cc1"
  group_label: "no (0)"
- molecule: "CN(C)c1ccc(C(O)C2C=CC3C(=O)N(c4ccccc4)C(=O)C3N2Nc2ccc([N+](=O)[O-])cc2)cc1 (stereo not drawn)"
  group_label: "no (0)"
- molecule: "COC(=O)[C@@]1(Cc2ccccc2)[C@H]2c3cc(C(=O)N(C)C)n(CCc4ccc(O)c(OC)c4)c3C[C@H]2CN1C(=O)c1ccccc1"
  group_label: "no (0)"
- molecule: "CCCCCCCCCCC(O)C1C=CC2C(=O)N(C)C(=O)C2N1Nc1ccc([N+](=O)[O-])cc1[N+](=O)[O-] (stereo not drawn)"
  group_label: "no (0)"
